All values here come from ChEMBL document CHEMBL2057072.

- ASSAYED_TARGET: D(1A) dopamine receptor (Homo sapiens)
- EXPERIMENTAL_DETAILS: Displacement of [3H]SCH23390 from human dopamine D1 receptor expressed in HEK293 cells
Checkbox rule: Ki lower than 100 nM = 1.0; Ki not lower than 100 nM = 0.0.

Ask | Would you kindly verify if Ki of COc1cc2c(cc1OC)[C@@H]1Cc3cc(C)cc(C)c3CN1CC2 is strictly less than 100 nM?
Reply | 0.0

* * *

- ASSAYED_TARGET: UniProt P21728
- EXPERIMENTAL_DETAILS: Displacement of [3H]SCH23390 from human dopamine D1 receptor expressed in HEK293 cells
- Type: cell-based
OUTCOME_MEASURE: pIC50
pIC50 here is simply -log10 of the concentration when that concentration is written in mol/L.

# example entries with known answers
1) COc1cc(OC)c2c(c1CO)C[C@H]1c3cc4c(cc3CCN1C2)OCO4 :: 6.49
2) COc1cc2c(cc1OC)[C@@H]1Cc3cc(C)cc(C)c3CN1CC2 :: 6.16
3) COc1cc2c(c(OC)c1)CN1CCc3cc4c(cc3[C@@H]1C2)OCO4 :: 6.85

Shifting focus to the compound that follows.
Ask | Fill in the blank: the reported pIC50 of COc1cc2c(c(OC)c1)CN1CCc3cc(OC)c(OC)c(OC)c3[C@@H]1C2 is ____.
Reply | 7.34

* * *

// reported pKi for each item listed
- ASSAYED_TARGET: D(2) dopamine receptor (Homo sapiens, UniProt P14416)
- Sequence (P14416 whole entry): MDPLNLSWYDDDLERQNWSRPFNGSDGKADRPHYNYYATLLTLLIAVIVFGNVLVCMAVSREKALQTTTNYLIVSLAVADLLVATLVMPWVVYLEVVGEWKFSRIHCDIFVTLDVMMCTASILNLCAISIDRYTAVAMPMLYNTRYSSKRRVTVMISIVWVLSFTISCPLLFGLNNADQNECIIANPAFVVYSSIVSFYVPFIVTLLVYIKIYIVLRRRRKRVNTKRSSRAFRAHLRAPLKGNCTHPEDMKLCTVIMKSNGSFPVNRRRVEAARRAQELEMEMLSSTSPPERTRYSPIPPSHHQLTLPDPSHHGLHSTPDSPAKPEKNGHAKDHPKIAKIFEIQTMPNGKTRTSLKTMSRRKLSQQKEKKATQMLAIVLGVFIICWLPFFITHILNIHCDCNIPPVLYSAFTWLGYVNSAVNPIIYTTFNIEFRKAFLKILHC
- EXPERIMENTAL_DETAILS: Displacement of [3H]Spiprone from human dopamine D2 receptor expressed in HEK293 cells
- Type: cell-based
For clarity, pKi is expressed as the negative log10 of concentration in mol/L.

1) COc1cc2c(cc1OC)[C@@H]1Cc3cc(C)cc(C)c3CN1CC2 :: 6.65
2) COc1cc2c(cc1O)[C@@H]1Cc3c(CO)c(OC)cc(OC)c3CN1CC2 :: 6.83
3) COc1cc2c(cc1O)[C@@H]1Cc3cc(C)cc(C)c3CN1CC2 :: 6.79

Ask | Which value of pKi has been reported for COc1ccc2c(c1)C[C@H]1c3cc(O)c(OC)cc3CCN1C2 in the records?
Reply | 6.46

Ask | # input compound: COc1cc2c(cc1O)[C@@H]1Cc3ccc(O)c(OC)c3CN1CC2 ; wanted: its pKi
Reply | 7.25

* * *

- ASSAYED_TARGET: D(1A) dopamine receptor (Homo sapiens, UniProt P21728)
- Sequence (P21728 whole entry): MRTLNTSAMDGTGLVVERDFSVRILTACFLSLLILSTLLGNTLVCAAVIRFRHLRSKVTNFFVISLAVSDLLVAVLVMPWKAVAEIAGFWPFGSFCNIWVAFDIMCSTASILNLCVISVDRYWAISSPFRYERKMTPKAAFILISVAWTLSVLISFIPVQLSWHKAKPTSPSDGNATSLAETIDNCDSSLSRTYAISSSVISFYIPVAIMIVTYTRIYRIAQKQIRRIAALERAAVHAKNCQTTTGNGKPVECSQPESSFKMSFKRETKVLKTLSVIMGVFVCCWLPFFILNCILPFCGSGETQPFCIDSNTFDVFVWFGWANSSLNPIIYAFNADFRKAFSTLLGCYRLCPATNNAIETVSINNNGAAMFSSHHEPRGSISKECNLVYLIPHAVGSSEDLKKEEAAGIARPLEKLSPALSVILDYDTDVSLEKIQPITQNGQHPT
- EXPERIMENTAL_DETAILS: Displacement of [3H]SCH23390 from human dopamine D1 receptor expressed in HEK293 cells
- Format: cell-based
OUTCOME_MEASURE: Ki
Write the quantity with the unit trailing the number.

1) COc1ccc2c(c1)C[C@H]1c3cc(O)c(OC)cc3CCN1C2 :: 35.8 nM

Ask | Fill blank: measured Ki of the compound COc1cc2c(c(OC)c1)CN1CCc3cc(OC)c(OC)c(OC)c3[C@@H]1C2 is ____.
Reply | 23.8 nM

Ask | Suppose we examine the compound COc1cc2c(cc1OC)[C@@H]1Cc3c(CO)c(OC)cc(OC)c3CN1CC2 ; what Ki value has been reported?
Reply | 64.1 nM

Ask | Given the entry COc1cc2c(cc1O)[C@@H]1Cc3c(CO)c(OC)cc(OC)c3CN1CC2 , report its measured Ki.
Reply | 17.3 nM

Ask | Returns the measured Ki for the input compound. Input: COc1cc2c(c(OC)c1)CN1CCc3cc4c(cc3[C@@H]1C2)OCO4
Reply | 74.5 nM
